molecular target: CLR/RAMP1 receptor (UniProt Q16602 23-461; O60894 27-148, limits assumed); assay: cell-based or functional assay
Sequence (Q16602 23-461 limits assumed, chain 1 of 2): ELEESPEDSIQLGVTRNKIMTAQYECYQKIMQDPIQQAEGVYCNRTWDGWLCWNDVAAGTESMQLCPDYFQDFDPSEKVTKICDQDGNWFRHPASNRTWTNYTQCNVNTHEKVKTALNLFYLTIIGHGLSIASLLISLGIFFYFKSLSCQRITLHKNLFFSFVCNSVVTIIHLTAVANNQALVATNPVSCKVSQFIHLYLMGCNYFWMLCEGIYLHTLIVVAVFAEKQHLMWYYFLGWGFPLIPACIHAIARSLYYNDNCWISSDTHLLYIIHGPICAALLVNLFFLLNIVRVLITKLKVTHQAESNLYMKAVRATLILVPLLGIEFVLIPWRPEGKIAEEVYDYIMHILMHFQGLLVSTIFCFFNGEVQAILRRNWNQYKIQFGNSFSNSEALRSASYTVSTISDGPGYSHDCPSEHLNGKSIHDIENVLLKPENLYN
Sequence (O60894 27-148 limits assumed, chain 2 of 2): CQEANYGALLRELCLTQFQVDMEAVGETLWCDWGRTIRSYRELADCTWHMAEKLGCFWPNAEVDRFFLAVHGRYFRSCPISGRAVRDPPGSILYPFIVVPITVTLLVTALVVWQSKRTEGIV
*: point of attachment. Palmitoyl = CCCCCCCCCCCCCCCC(=O)*
ATTRIBUTE MEASURED: IC50 (nM), CGRP-stimulated CLR/RAMP1 cAMP assay
Write the value in nM as a bare number.

Recorded IC50 (nM), CGRP-stimulated CLR/RAMP1 cAMP assay (binder Ac-TVQKLAHRLWQLMGPDKDNVAPRSKISPQGY-NH2 [SEQ ID NO: 116] ): 152

Recorded IC50 (nM), CGRP-stimulated CLR/RAMP1 cAMP assay (binder Palmitoyl-KVQKLAHQIYQFTDKDVAPRSKISPQGY-NH2 [SEQ ID NO: 119] ): 21
